measured_target: hDAT (Homo sapiens, UniProt Q01959)
Sequence (Q01959 whole entry, the tested form may be a part): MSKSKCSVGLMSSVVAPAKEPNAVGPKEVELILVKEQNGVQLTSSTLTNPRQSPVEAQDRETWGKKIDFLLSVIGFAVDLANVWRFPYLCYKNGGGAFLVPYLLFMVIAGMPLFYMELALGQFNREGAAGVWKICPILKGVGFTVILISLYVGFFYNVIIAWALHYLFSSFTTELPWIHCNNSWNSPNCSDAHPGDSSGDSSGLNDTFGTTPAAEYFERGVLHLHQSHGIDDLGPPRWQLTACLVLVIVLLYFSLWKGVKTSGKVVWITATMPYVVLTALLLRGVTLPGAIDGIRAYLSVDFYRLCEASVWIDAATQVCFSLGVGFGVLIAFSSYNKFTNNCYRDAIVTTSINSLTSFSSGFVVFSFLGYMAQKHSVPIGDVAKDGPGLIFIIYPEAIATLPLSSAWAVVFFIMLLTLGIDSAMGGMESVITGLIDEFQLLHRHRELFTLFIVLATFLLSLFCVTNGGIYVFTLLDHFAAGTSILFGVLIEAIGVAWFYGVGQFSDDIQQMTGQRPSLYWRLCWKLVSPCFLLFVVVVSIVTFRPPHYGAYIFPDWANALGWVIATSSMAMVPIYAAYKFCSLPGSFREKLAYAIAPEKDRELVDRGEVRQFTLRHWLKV
run_description: Superfusion release of preloaded [3H]DA from HEK-hDAT cells
Format: cell-based
measured_property: % maximum release ± sem, hDAT [3H]DA
# output: numeric value plus its unit

Data request: Identify measured % maximum release ± sem, hDAT [3H]DA associated with CNC(C)C(=O)c1ccc(C)cc1 (stereo not drawn)
Data returned: 68 ± 11%

Data request: Tell me % maximum release ± sem, hDAT [3H]DA reported for CNC(C)C(=O)c1ccc2c(c1)OCO2 (stereo not drawn)
Data returned: 41 ± 12%

Data request: Dear colleague, please send me the reported % maximum release ± sem, hDAT [3H]DA for CCC(NC)C(=O)c1ccc2c(c1)OCO2 (stereo not drawn) when you can.
Data returned: 5.4 ± 3.8%

Data request: Answer with the recorded % maximum release ± sem, hDAT [3H]DA for the compound listed here: CCCC(C(=O)c1ccc2c(c1)OCO2)N1CCCC1 (stereo not drawn)
Data returned: 4.8 ± 5.3%

Data request: Find the measured % maximum release ± sem, hDAT [3H]DA of CNC(C)C(=O)c1ccccc1 (stereo not drawn) [Methcathinone, methcathinone, reference compound] and report it.
Data returned: 83.3 ± 4.9%

Data request: Tell me % maximum release ± sem, hDAT [3H]DA reported for CNC(C)C(=O)c1ccc(F)cc1 (stereo not drawn)
Data returned: 98 ± 14%

----------
measured_target: h5-HT2C receptor (Homo sapiens, UniProt P28335)
Sequence (P28335 33-458): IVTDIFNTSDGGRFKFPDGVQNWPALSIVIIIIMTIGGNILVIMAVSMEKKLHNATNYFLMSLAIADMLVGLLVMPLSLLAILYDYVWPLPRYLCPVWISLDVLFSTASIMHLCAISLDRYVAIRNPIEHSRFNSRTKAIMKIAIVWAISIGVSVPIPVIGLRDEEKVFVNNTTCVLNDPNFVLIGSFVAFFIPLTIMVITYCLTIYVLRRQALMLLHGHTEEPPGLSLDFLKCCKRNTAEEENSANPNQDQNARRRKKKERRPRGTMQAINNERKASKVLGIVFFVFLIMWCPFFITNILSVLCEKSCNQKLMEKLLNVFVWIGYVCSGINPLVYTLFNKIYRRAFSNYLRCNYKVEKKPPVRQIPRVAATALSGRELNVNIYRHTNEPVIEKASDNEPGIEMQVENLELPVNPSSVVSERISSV
run_description: biochemical
Format: binding
measured_property: Ki

Data request: Read the entry CNC(C)C(=O)c1ccc2c(c1)OCO2 (stereo not shown) and write its reported Ki.
Data returned: 10.6 µM

Data request: Respond only with Ki recorded for Cc1cc2c(cc1Cl)N(C(=O)Nc1ccc(Oc3cccnc3C)nc1)CC2 [SB242084, reference compound]
Data returned: 0.00247 µM

Data request: Recall and state the measured Ki for CNC(C)C(=O)c1ccc(C)cc1 (stereo not shown) .
Data returned: 9.1 µM

Data request: Using the record for CN[C@@H](C)Cc1ccccc1 [METH, (+)methamphetamine, reference compound] , state its measured Ki.
Data returned: 10.2 µM

----------
measured_target: UniProt P31645
Sequence (P31645 whole entry, the tested form may be a part): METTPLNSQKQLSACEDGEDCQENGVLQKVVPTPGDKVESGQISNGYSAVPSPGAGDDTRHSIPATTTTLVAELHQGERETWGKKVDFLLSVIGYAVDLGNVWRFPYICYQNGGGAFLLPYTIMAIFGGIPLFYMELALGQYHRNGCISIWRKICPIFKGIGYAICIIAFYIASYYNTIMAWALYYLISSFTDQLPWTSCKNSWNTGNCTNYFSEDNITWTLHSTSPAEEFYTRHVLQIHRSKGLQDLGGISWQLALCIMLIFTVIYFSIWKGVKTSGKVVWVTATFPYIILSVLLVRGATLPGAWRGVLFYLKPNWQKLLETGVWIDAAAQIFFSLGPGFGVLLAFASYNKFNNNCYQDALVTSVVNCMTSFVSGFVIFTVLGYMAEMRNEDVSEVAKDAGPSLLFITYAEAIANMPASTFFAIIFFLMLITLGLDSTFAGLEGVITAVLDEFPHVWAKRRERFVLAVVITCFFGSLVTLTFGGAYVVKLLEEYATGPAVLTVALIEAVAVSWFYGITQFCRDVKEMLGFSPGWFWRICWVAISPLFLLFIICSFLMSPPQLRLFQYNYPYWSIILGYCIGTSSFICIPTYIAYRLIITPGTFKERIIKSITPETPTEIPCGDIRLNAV
run_description: Superfusion release of preloaded [3H]5-HT from HEK-hSERT cells
Format: cell-based
settings: read-out: Drug-induced release of [3H]neurotransmitter EC50 ± sem, hSERT [3H]5-HT; superfusion, AUC
For each record, write down the corresponding pEC50.
Field pEC50 (float): negative decimal logarithm of the concentration in molar.

Data request: Please look at this molecule and report its pEC50: CCCC(C(=O)c1ccc2ccccc2c1)N1CCCC1 (stereo not shown) [Naphyrone, naphthylpyrovalerone]
Data returned: 5.12

Data request: Report pEC50, nothing else, for this molecule: CNC(C)C(=O)c1ccc(F)cc1 (stereo not shown) [4-FMC, 4-fluoromethcathinone]
Data returned: 4.41

----------
I'd be grateful if you could share measured Ki for these entries.
measured_target: hDAT (Homo sapiens)
run_description: Inhibition of [125I]RTI-55 binding, HEK-hDAT membranes
Record the value in µM, omitting the unit from your answer.

Data request: # return recorded Ki for input CN[C@@H](C)Cc1ccccc1 [METH, (+)methamphetamine, reference compound]
Data returned: 3.96

Data request: Name the recorded Ki of the molecule listed here: CNC(C)C(=O)c1ccc(C)cc1 (stereo not drawn)
Data returned: 4.8

Data request: Tell me its Ki given CNC(C)C(=O)c1ccc2c(c1)OCO2 (stereo not drawn) as the entry.
Data returned: 5.02

----------
Please go through the items and note down their IC50.
measured_target: hVMAT2 (Homo sapiens)
Sequence (Q05940 whole entry): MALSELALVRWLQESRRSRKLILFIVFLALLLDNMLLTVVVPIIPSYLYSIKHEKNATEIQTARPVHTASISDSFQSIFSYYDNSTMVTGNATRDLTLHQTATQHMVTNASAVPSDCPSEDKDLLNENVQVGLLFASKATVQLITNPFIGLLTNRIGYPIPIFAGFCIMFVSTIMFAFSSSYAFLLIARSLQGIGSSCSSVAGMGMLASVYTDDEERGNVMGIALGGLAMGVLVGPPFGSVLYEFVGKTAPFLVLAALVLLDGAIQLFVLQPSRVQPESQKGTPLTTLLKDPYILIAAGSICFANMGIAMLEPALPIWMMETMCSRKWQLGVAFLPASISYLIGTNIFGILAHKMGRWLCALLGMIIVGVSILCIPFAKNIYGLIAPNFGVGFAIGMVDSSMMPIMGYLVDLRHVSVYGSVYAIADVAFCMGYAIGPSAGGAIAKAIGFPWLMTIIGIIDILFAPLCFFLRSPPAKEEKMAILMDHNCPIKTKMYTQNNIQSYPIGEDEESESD
run_description: Inhibition of [3H]5-HT uptake, HEK-hVMAT2 membrane preparation
Assay type: biochemical

Data request: For hVMAT2 (Homo sapiens), give IC50 of the listed compound: CNC(C)C(=O)c1ccc2c(c1)OCO2 (stereo not drawn) [Methylone, 3,4-methylenedioxy-N-methylcathinone]
Data returned: > 100 µM

Data request: Write down measured IC50 (hVMAT2 (Homo sapiens)) for this compound. CNC(C)C(=O)c1ccc(C)cc1 (stereo not drawn) [Mephedrone, 4-methyl-N-methylcathinone]
Data returned: 116 µM

Data request: Recall the reported IC50 of CN[C@@H](C)Cc1ccccc1 [METH, (+)methamphetamine, reference compound] when tested on hVMAT2 (Homo sapiens).
Data returned: 4.72 µM

----------
measured_target: h5-HT2A receptor (Homo sapiens)
Sequence (P28223 whole entry): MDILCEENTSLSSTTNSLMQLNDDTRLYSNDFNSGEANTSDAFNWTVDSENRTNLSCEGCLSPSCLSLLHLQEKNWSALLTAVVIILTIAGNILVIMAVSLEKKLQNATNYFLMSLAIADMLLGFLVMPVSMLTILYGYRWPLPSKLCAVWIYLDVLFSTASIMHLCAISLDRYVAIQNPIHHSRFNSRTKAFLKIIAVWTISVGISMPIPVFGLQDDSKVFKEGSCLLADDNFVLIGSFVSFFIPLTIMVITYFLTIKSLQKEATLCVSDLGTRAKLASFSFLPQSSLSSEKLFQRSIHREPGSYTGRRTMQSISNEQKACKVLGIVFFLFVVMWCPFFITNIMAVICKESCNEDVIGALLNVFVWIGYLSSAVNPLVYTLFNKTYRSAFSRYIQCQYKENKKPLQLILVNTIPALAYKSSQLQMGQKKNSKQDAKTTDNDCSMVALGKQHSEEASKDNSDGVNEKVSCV
run_description: Inhibition of 5-HT-stimulated IP-1 formation
Assay type: cell-based
measured_property: pIC50
On this scale, pIC50 is minus log10 of a concentration expressed in M (mol/L).

Data request: Query pIC50 for CNC(C)C(=O)c1ccc2c(c1)OCO2 (centres unmarked)
Data returned: 3.80

Data request: Give pIC50 for CN[C@@H](C)Cc1ccccc1 [METH, (+)methamphetamine, reference compound]
Data returned: 3.95

----------
measured_target: UniProt:Q01959
run_description: Inhibition of [3H]DA uptake, intact HEK-hDAT cells
Assay type: cell-based
settings: read-out: Inhibition of [3H]neurotransmitter uptake IC50 ± sem, hDAT [3H]DA; 20 nM [3H]DA, intact cells
measured_property: IC50 (nM)
Could you give me the number in nM? Just the number is fine.

Data request: Provide one value: measured IC50 of CNC(C)Cc1ccc2c(c1)OCO2 (stereo not drawn) [MDMA, 3,4-methylenedioxymethylamphetamine, reference compound]
Data returned: 201

Data request: Input CNC(C)C(=O)c1ccccc1 (stereo not drawn) [Methcathinone, methcathinone, reference compound] , output reported IC50.
Data returned: 144

Data request: Given CCCC(C(=O)c1ccc2c(c1)OCO2)N1CCCC1 (stereo not drawn) , respond with its IC50.
Data returned: 12.6

Data request: Output IC50 of CCCC(C(=O)c1ccc2ccccc2c1)N1CCCC1 (stereo not drawn)
Data returned: 12.6

Data request: Please report the measured IC50 for CNC(C)C(=O)c1ccc(F)cc1 (stereo not drawn)
Data returned: 273

Data request: Recall and state the measured IC50 for CCC(NC)C(=O)c1ccc2c(c1)OCO2 (stereo not drawn) .
Data returned: 211

----------
measured_target: hDAT (Homo sapiens, UniProt Q01959)
run_description: Inhibition of [3H]DA uptake, intact HEK-hDAT cells
Assay type: cell-based
measured_property: IC50 (nM)
Reply numerically in nM, unit not repeated.

Data request: Enter measured IC50, system hDAT (Homo sapiens, UniProt Q01959), for the molecule shown: CNC(C)C(=O)c1ccc2c(c1)OCO2 (stereo not drawn)
Data returned: 343

Data request: Enter recorded IC50 with hDAT (Homo sapiens, UniProt Q01959) for CN[C@@H](C)Cc1ccccc1 [METH, (+)methamphetamine, reference compound] here.
Data returned: 26

Data request: Check hDAT (Homo sapiens, UniProt Q01959) data and give IC50 for CNC(C)C(=O)c1ccc(C)cc1 (stereo not drawn) .
Data returned: 98

----------
measured_target: hSigma1 receptor (Homo sapiens)
Sequence (Q99720 whole entry): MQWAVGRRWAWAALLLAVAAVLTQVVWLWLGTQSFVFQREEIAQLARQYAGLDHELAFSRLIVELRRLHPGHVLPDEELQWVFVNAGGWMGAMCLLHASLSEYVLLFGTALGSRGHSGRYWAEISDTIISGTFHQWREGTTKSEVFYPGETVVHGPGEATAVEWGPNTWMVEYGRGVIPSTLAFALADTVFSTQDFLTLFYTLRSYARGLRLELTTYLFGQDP
run_description: [3H]
Assay type: binding
settings: read-out: Inhibition of [3H]pentazocine binding Ki ± sem, hSigma1
pKi: −log10 of the molar value.
# if value of pKi reaches 5, tag yes; if it stays below, tag no

Data request: Check if pKi >= 5 (inclusive). Item: CCCC(C(=O)c1ccc2c(c1)OCO2)N1CCCC1 (stereo not drawn) [MDPV, 3,4-methylenedioxypyrovalerone]
Data returned: yes

Data request: Given CCCC(C(=O)c1ccc2ccccc2c1)N1CCCC1 (stereo not drawn) [Naphyrone, naphthylpyrovalerone] , state whether its pKi is at least 5.
Data returned: yes

Data request: Given CNC(C)C(=O)c1ccccc1 (stereo not drawn) [Methcathinone, methcathinone, reference compound] , state whether its pKi is at least 5.
Data returned: no

Data request: Does pKi meet or surpass 5 for CNC(C)C(=O)c1ccc(F)cc1 (stereo not drawn) [4-FMC, 4-fluoromethcathinone] ?
Data returned: no

Data request: # bool: pKi of CNC(C)Cc1ccc2c(c1)OCO2 (stereo not drawn) [MDMA, 3,4-methylenedioxymethylamphetamine, reference compound] >= 5
Data returned: no

----------
measured_target: UniProt P31645
run_description: Inhibition of [3H]5-HT uptake, intact HEK-hSERT cells
Format: cell-based
settings: [125I]RTI-55 Ki / [3H]5-HT uptake IC50
measured_property: ratio of binding Ki to uptake IC50, hSERT

CNC(C)C(=O)c1ccccc1 (stereo not drawn) [Methcathinone, methcathinone, reference compound]    > 7.4
CNC(C)C(=O)c1ccc2c(c1)OCO2 (stereo not drawn) [Methylone, 3,4-methylenedioxy-N-methylcathinone]    50
CCCC(C(=O)c1ccc2c(c1)OCO2)N1CCCC1 (stereo not drawn) [MDPV, 3,4-methylenedioxypyrovalerone]    less than six
CCC(NC)C(=O)c1ccc2c(c1)OCO2 (stereo not drawn) [Butylone]    5.3

Data request: Name the recorded ratio of binding Ki to uptake IC50, hSERT of the item CCCC(C(=O)c1ccc2ccccc2c1)N1CCCC1 (stereo not drawn) [Naphyrone, naphthylpyrovalerone] in your answer.
Data returned: less than six

Data request: Retrieve ratio of binding Ki to uptake IC50, hSERT measured for CN[C@@H](C)Cc1ccccc1 [METH, (+)methamphetamine, reference compound] and print it.
Data returned: 59
